Recorded values, source patent US20220204611A1.

# Tested System: T1, human TREM2 (human, UniProt Q9NZC2 19-174, limits assumed)
# T1 sequence: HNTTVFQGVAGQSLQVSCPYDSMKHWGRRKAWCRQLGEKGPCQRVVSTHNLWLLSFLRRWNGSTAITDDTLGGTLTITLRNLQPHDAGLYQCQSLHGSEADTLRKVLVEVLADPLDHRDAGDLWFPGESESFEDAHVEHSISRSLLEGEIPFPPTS
# Assay Comment: yeast-displayed Fab FACS, 1st screen 10 nM
Readout Kind: binding signal fold over 6E7 parental (fold)
Your answer is read as fold, so omit the unit and give the number.

Sample answers from the record:
| Binder | binding signal fold over 6E7 parental / fold |
| --- | --- |
| V13 (Fab, V domains shown) VH: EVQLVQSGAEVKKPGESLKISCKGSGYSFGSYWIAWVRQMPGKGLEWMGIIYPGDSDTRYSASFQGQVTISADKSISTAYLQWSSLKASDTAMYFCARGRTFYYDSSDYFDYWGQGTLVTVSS VL: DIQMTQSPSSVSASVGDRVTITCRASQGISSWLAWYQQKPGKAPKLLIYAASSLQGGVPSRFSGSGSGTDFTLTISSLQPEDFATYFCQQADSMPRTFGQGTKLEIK | 1.31 |
| V77 (Fab, V domains shown) VH: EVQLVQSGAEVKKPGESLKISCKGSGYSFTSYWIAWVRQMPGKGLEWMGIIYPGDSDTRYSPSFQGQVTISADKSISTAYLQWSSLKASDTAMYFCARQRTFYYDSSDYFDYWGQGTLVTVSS VL: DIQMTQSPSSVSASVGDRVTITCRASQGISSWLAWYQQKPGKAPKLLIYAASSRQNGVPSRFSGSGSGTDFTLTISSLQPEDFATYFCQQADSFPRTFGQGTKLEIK | 1.43 |
| V37 (Fab, V domains shown) VH: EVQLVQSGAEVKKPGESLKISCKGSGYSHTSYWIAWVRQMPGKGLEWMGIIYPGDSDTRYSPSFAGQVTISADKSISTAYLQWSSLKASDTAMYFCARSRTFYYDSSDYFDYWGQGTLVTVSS VL: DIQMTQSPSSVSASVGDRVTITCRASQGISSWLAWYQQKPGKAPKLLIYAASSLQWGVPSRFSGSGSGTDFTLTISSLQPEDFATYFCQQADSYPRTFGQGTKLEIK | 3.46 |
| V75 (Fab, V domains shown) VH: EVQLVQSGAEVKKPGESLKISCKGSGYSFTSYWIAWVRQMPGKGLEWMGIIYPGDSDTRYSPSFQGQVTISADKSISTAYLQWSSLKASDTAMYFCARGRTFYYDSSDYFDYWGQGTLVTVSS VL: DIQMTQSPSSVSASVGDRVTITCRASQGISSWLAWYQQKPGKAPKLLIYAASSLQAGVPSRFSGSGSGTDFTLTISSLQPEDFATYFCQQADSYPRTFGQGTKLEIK | 4.64 |
| V62 (Fab, V domains shown) VH: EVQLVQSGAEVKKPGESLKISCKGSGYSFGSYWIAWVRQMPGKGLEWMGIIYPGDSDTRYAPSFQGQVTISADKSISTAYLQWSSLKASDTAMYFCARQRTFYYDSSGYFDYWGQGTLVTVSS VL: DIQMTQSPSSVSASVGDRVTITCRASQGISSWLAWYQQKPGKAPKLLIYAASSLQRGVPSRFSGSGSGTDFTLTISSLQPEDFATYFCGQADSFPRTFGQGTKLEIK | 2.49 |
| V25 (Fab, V domains shown) VH: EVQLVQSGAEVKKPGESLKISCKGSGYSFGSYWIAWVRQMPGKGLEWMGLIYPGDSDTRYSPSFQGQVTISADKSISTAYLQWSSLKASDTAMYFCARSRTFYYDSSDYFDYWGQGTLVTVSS VL: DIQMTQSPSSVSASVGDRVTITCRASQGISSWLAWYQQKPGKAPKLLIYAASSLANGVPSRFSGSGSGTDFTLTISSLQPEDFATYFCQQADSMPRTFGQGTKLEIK | 4.23 |
| V1 (Fab, V domains shown) VH: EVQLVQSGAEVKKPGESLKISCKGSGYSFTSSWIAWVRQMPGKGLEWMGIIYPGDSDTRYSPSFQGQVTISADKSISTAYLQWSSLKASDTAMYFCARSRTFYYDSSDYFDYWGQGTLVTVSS VL: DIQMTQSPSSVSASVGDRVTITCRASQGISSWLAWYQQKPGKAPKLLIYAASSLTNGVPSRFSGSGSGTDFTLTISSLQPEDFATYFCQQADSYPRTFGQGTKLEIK | 1.68 |
| V40 (Fab, V domains shown) VH: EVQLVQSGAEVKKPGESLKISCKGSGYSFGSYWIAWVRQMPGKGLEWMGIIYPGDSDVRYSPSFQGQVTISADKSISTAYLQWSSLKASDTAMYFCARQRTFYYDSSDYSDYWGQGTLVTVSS VL: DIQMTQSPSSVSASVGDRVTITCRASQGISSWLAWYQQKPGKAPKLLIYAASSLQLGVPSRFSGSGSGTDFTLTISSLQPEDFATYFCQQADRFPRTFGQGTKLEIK | 4.48 |
| V27 (Fab, V domains shown) VH: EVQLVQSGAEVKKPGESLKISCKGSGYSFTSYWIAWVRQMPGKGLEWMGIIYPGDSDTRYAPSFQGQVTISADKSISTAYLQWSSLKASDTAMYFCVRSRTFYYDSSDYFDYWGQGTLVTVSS VL: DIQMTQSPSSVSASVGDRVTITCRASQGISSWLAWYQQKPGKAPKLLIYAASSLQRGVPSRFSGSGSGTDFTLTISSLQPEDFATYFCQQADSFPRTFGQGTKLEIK | 5.5 |

Here is the next item to consider.
Sample V5 (Fab, V domains shown) VH: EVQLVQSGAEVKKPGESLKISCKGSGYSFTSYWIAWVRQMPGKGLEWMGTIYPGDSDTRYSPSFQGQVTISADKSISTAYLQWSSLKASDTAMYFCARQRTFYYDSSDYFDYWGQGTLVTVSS VL: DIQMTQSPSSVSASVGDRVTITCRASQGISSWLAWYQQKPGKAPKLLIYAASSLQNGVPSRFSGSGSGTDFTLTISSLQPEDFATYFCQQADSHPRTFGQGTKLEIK — what was its binding signal fold over 6E7 parental?
2.73
